Test system: MDA-MB-435
Assay: NCI tumour cell line growth inhibition, 48 h
Activity calls are given as the source filed them. Rule as the data show it: active = GI50 up to about 1.1 µM and inactive = higher.
Outcome field: choose from active, inactive

compound="Cc1ccc(S(=O)ON2CCC(C(=O)O)(c3ccccc3)CC2)cc1 (centres undefined)" discrete_label=inactive
compound=CCC/N=C(/NC(=O)c1ccc(Cl)cc1)SC discrete_label=inactive
compound="CNC(c1ccncc1)C(NC)c1ccncc1 (centres undefined)" discrete_label=inactive
compound=Cc1ccsc1/C=N/NC1=NCCN1 discrete_label=inactive
compound=Cc1ccc(-c2c(C#N)c(-c3ccc([N+](=O)[O-])cc3)c(C#N)c(=O)n2NS(=O)(=O)c2ccc(C)cc2)cc1 discrete_label=inactive
compound=CCSC1=N/C(=C\c2ccccc2O)C(Nc2ccc(C)cc2)=N1 discrete_label=inactive
compound="CC(=O)OC1C2CCC1C1C2N=NN1c1ccc([N+](=O)[O-])cc1 (centres undefined)" discrete_label=inactive
compound="O=C1CC(c2ccccc2Cl)C2(C(=O)NC(=O)NC2=O)C(c2ccccc2Cl)C1 (centres undefined)" discrete_label=inactive

-- ask Lab log entry: CC(=O)c1ccc2c3c1[C@@H]1O[C@@H]1c1cccc(c1-3)[C@@H]1O[C@H]21 — outcome as called in the assay?
-- reply inactive

-- ask How did this test come out for S=c1sc2c(s1)SCCCCSCCCCSc1sc(=S)sc1SCCCCSCCCCS2 ?
-- reply inactive

-- ask How was CCC1(O)CC(OC2CC(N(C)C)C(OC3CC(O)C(OC4CCC(=O)C(C)O4)C(C)O3)C(C)O2)c2c(cc3c(c2O)C(=O)c2c(O)ccc(O)c2C3=O)C1C(=O)OC (centres undefined) classified in this test?
-- reply active

-- ask Hello, I am checking results. What call was entered for C=C1CC2(CC(c3ccccc3C)OC(c3ccccc3C)C2)OC1=O (centres undefined) ?
-- reply inactive

-- ask Given O=C(N/N=C\c1cccc2ccccc12)Nc1ccccc1 , state the outcome it received in this test.
-- reply inactive

-- ask Record request — test call for C=CCSC1=N/C(=C\c2ccc(OC)cc2)C(=O)N1CC=C
-- reply inactive

-- ask Kindly provide the recorded test outcome for the following compound: CC1CC[C@@]2(OC1)OC1C[C@H]3[C@@H]4CC=C5CC(OC6OC(CO)C(OC7OC(CO)C(O)C(OC8OCC(O)C(O)C8O)C7OC7OC(CO)C(OC8OC(C)C(OC9OC(C)C(O)C(O)C9O)C(O)C8O)C(O)C7O)C(O)C6O)CCC5(C)[C@H]4CCC3(C)C1[C@@H]2C (some centres undefined)
-- reply inactive

-- ask // param item: [O-][n+]1cn[n+]([O-])c2ccccc21 ; yields the recorded call
-- reply inactive

-- ask Can you look up the reported call for C[C@H]1O[C@@H](c2c(O)ccc3ccccc23)C[C@@H](N(C)C)C1O (some centres undefined) for me?
-- reply inactive

-- ask Outcome logged for CCOc1nc2c(N3CCCC3)nc(N3CCNCC3)nc2nc1NCc1ccccc1 in this assay:
-- reply inactive

-- ask Can you look up the reported call for Cc1ccccc1C(=O)NC(O)(C(F)(F)F)C(F)(F)F for me?
-- reply inactive
